Values were extracted from patent US20120165319A1.

target: ICE (Homo sapiens, UniProt P29466); test: Enzyme assay with fluorescent substrate (Acetyl-Tyr-Val-Ala-Asp-AMC); Ki and second order rate constants kinact; format: biochemical; details: YVAD-AMC substrate; reversible inhibitors (Table 1)
Sequence (P29466 120-297 limits assumed): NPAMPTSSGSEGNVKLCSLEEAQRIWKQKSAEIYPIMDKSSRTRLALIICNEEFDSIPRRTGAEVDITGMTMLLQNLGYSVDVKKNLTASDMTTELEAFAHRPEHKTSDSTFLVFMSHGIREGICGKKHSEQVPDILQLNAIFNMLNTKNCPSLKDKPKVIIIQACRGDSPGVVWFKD
Sequence (P29466 317-404 limits assumed): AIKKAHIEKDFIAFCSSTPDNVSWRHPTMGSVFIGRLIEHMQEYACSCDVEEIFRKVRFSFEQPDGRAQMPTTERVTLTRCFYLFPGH

COMPOUND | Ki [nM]
O=C[C@H](CC(=O)O)NC(=O)[C@@H]1CCCN2C(=O)CC[C@H](NC(=O)c3ccccc3)C(=O)N12 [Compound 214e] | 7.5

---

biological target: ICE (Homo sapiens); experiment: Enzyme assay with UV-visible substrate (visible ICE assay, Succinyl-Tyr-Val-Ala-Asp-pNitroanilide); type: biochemical; settings: Table 5
# log10 Ki values compiled below
QUANTITY_NAME: log10 Ki (log10 of the value in nM)

COMPOUND | log10 Ki
O=C[C@H](CC(=O)O)NC(=O)CN1C(=O)[C@@H](NC(=O)c2ccccc2)CN(C(=O)NCc2ccccc2)c2ccccc21 [Compound 605p] | 2.10
C[C@H]1CC(=O)N2CCC[C@@H](C(=O)N[C@H](C=O)CC(=O)O)N2C(=O)[C@H]1NC(=O)c1ccccc1 | 1.11
CS(=O)(=O)N[C@H]1CCC(=O)N2CCC[C@@H](C(=O)N[C@@H](CC(=O)O)C(=O)c3ncc(-c4c(Cl)cccc4Cl)o3)N2C1=O [Compound 220b] | 2.78
COC(=O)C(=O)N1C[C@H](NC(=O)c2ccccc2)C(=O)N(CC(=O)N[C@H](C=O)CC(=O)O)c2ccccc21 [Compound 605h] | 2.66
O=C[C@H](CC(=O)O)NC(=O)[C@@H]1CCCN2C(=O)CC[C@H](NC(=O)c3ccc4cc(O)ccc4c3)C(=O)N12 | -0.10
O=C[C@H](CC(=O)O)NC(=O)[C@@H]1CCCN2C(=O)CC[C@H](NC(=O)c3ccc4c(c3)OCO4)C(=O)N12 | 0.40
